This collection of values is drawn from PubChem BioAssay (NCI).

# Tested on: TK-10 renal
# Assay Summary: NCI-60 one-dose screen, 48 h
# Condition Context: 10 µM unless noted
Compounds without any hit were thinned out: in the full panel of roughly 83,000, 20% have a hit. The source made the active and inactive calls. The calls were made as follows: active = growth percent below 10; inactive = the rest.
Possible outcomes: active, inactive

[
  {
    "Compound": "Cc1nc(-c2ccc(Cl)cc2)ccc1NC(=O)Nc1cccc(C(F)(F)F)c1",
    "Qualitative Label": "inactive"
  },
  {
    "Compound": "O=C1C(SCCO)=C(SCCO)C(=O)N1c1ccc(-c2ccccc2)cc1",
    "Qualitative Label": "active"
  },
  {
    "Compound": "COc1ccc(Cl)cc1NC(=O)c1cc2c(n1C)-c1nc(NC(=O)C(C)(C)C)sc1CC2",
    "Qualitative Label": "inactive"
  },
  {
    "Compound": "Cc1cccc(NC(=O)CCc2ccc(N3C(N)=NC(N)=NC3(C)C)cc2)c1",
    "Qualitative Label": "inactive"
  },
  {
    "Compound": "CCCCCC/C=N/Nc1ccc([N+](=O)[O-])cn1",
    "Qualitative Label": "inactive"
  },
  {
    "Compound": "CC1(C)N=C(N)N=C(N)N1c1ccc(OCC(=O)Nc2ccccc2)c(Cl)c1",
    "Qualitative Label": "inactive"
  },
  {
    "Compound": "S=C=NP1(N=C=S)=NP(N=C=S)(N=C=S)=NP(N=C=S)(N=C=S)=NP(N=C=S)(N=C=S)=N1 (stereo unspecified)",
    "Qualitative Label": "inactive"
  },
  {
    "Compound": "CC12CCC3C(CCC4CC(O)CCC43C)C1C/C(=C/O)C(=O)O2 (stereo unspecified)",
    "Qualitative Label": "inactive"
  },
  {
    "Compound": "OCCOCC(F)(F)F",
    "Qualitative Label": "inactive"
  },
  {
    "Compound": "CCn1c(C)nc([N+](=O)[O-])c1Sc1nc(N)nc2nc[nH]c12",
    "Qualitative Label": "inactive"
  },
  {
    "Compound": "O=C1OC(c2ccc(-c3ccccc3)cc2)=C/C1=C/C=C/c1ccccc1",
    "Qualitative Label": "inactive"
  }
]

###

# Tested on: HOP-62 NSCLC
# Assay Summary: NCI-60 one-dose screen, 48 h (100 = growth as untreated, 0 = no growth, -100 = all killed)
# Condition Context: 10 µM unless noted
The panel holds about 83,000 compounds, 20% with a hit somewhere; the sample as a whole holds those more often.
Outcome: label 1 for growth of at least 90%; label 0 for anything lower.

[
  {
    "Compound": "COc1ccc(Cl)cc1NC(=O)c1cc2c(n1C)-c1nc(NC(=O)C(C)C)sc1CC2",
    "Tested Target": "HOP-62 NSCLC",
    "Qualitative Label": "label 0"
  },
  {
    "Compound": "NS(=O)(=O)c1ccc(Nc2nc(O)c(/C=C3\\C=Nc4ccccc43)s2)cc1",
    "Tested Target": "HOP-62 NSCLC",
    "Qualitative Label": "label 1"
  },
  {
    "Compound": "CC(NCCC(c1ccccc1)c1ccccc1)c1ccccc1 (stereo not given)",
    "Tested Target": "HOP-62 NSCLC",
    "Qualitative Label": "label 1"
  },
  {
    "Compound": "S=C=NP1(N=C=S)=NP(N=C=S)(N=C=S)=NP(N=C=S)(N=C=S)=NP(N=C=S)(N=C=S)=N1 (stereo not given)",
    "Tested Target": "HOP-62 NSCLC",
    "Qualitative Label": "label 0"
  },
  {
    "Compound": "COc1ccccc1N1CCN(CCCOc2ccc(OCCCN3CCN(c4ccccc4OC)CC3)c(C(=O)c3cc(OC)c(OC)c(OC)c3)c2)CC1",
    "Tested Target": "HOP-62 NSCLC",
    "Qualitative Label": "label 1"
  },
  {
    "Compound": "CC(CCC(=O)O)[C@H]1CCC2C3C(=O)C[C@@H]4CC(=O)CC[C@]4(C)C3CC(=O)[C@@]21C (stereo not given in full)",
    "Tested Target": "HOP-62 NSCLC",
    "Qualitative Label": "label 1"
  },
  {
    "Compound": "NC(=S)NNC1CCCCC1",
    "Tested Target": "HOP-62 NSCLC",
    "Qualitative Label": "label 0"
  },
  {
    "Compound": "CCn1cc(C(=O)O)c(=O)c2cc(F)c(N3CCN(CC(=O)Nc4ccc(C(C)=O)cc4)CC3)cc21",
    "Tested Target": "HOP-62 NSCLC",
    "Qualitative Label": "label 1"
  },
  {
    "Compound": "COc1ccc2c(c1)nnn1c3ncccc3c(N=O)c21",
    "Tested Target": "HOP-62 NSCLC",
    "Qualitative Label": "label 0"
  }
]
